Hi there, I'd appreciate the recorded EC50 for every entry that follows.
Target: Free fatty acid receptor 1 (Homo sapiens)
Sequence (O14842 whole entry): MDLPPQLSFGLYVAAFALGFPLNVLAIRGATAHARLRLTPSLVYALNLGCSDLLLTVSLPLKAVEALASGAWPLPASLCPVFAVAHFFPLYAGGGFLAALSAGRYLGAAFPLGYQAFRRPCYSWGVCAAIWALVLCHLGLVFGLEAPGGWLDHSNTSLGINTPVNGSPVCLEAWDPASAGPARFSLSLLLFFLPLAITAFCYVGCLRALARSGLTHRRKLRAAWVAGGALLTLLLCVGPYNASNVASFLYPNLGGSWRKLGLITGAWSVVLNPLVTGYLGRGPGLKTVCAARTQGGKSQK
Experiment: Agonist activity at human FFA1 receptor expressed in human 1321N1 cells assessed as calcium mobilization by fluorescence spectrophotometry
Write the value in nM as a bare number.

Prompt: I would be grateful if you could share the reported EC50 for O=C(O)CCc1ccc(C#Cc2cccs2)cc1 .
Completion: 251

Prompt: What about Cc1ccccc1C#Cc1ccc(CCC(=O)O)cc1 ?
Completion: 45.7

Prompt: What about Cc1c(C#Cc2ccc(CCC(=O)O)cc2)ccnc1Cl ?
Completion: 135

====

Hi there, I'd appreciate the recorded pEC50 for every entry that follows.
Target: Free fatty acid receptor 1 (Homo sapiens)
Test: Agonist activity at human FFA1 receptor expressed in human 1321N1 cells assessed as calcium mobilization by fluorescence spectrophotometry
// pEC50 here means minus log10 of the molar concentration (mol/L)

Prompt: I would be grateful if you could share the reported pEC50 for C=CCc1c(C#Cc2ccc(CCC(=O)O)cc2)ccnc1Cl .
Completion: 6.50

Prompt: What about O=C(O)CCc1ccc(C#Cc2cncs2)cc1 ?
Completion: 5.41

Prompt: What about O=C(O)CCc1ccc(C#Cc2ccnc(F)c2)cc1 ?
Completion: 6.29

Prompt: What about O=C(O)CCc1ccc(C#Cc2ccnc(Cl)n2)cc1 ?
Completion: 5.04

Prompt: What about O=C(O)CCc1ccc(C#Cc2ccncc2)cc1 ?
Completion: 5.39

Prompt: What about Cc1ccccc1-c1cc(C#Cc2ccc(CCC(=O)O)cc2)ccn1 ?
Completion: 5.97

Prompt: What about O=C(O)CCc1ccc(C#Cc2ccnc3cc(Cl)ccc23)cc1 ?
Completion: 7.10

Prompt: What about O=C(O)CCc1ccc(C#Cc2ccnc(Cl)c2Cc2ccccc2)cc1 ?
Completion: 6.10

Prompt: What about O=C(O)CCc1ccc(C#Cc2cccnc2)cc1 ?
Completion: 5.22

Prompt: What about O=C(O)CCc1ccc(C#Cc2cccnc2Cl)cc1 ?
Completion: 6.22

Prompt: What about O=C(O)CCc1ccc(C#Cc2ccccn2)cc1 ?
Completion: 4.88

Prompt: What about O=C(O)CCc1ccc(C#Cc2cc(Cl)nc(Cl)c2)cc1 ?
Completion: 7.39

Prompt: What about Cc1cccc(C#Cc2ccc(CCC(=O)O)cc2)n1 ?
Completion: 5.21

Prompt: What about COc1cc(C#Cc2ccc(CCC(=O)O)cc2)ccn1 ?
Completion: 6.28

Prompt: What about Cc1ccsc1C#Cc1ccc(CCC(=O)O)cc1 ?
Completion: 7.12

Prompt: What about Cc1c(C#Cc2ccc(CCC(=O)O)cc2)ccnc1F ?
Completion: 6.92

Prompt: What about O=C(O)CCc1ccc(C#Cc2ccc(Cl)nc2)cc1 ?
Completion: 6.15

Prompt: What about O=C(O)CCc1ccc(C#Cc2ccnc(Cl)c2)cc1 ?
Completion: 6.53

Prompt: What about Cc1cc(C#Cc2ccc(CCC(=O)O)cc2)nc(Cl)n1 ?
Completion: 5.56

====

Hi there, I'd appreciate the recorded Efficacy for every entry that follows.
Target: Free fatty acid receptor 1 (Homo sapiens)
Experiment: Agonist activity at human FFA1 receptor expressed in human 1321N1 cells assessed as calcium mobilization by fluorescence spectrophotometry relative to 10 uM TUG-20
Type: functional, cell-based
Write the value in % as a bare number.

Prompt: I would be grateful if you could share the reported Efficacy for C=CCc1c(C#Cc2ccc(CCC(=O)O)cc2)ccnc1Cl .
Completion: 97

Prompt: What about O=C(O)CCc1ccc(C#Cc2ccc(Cl)nc2)cc1 ?
Completion: 98

Prompt: What about Cc1cc(C#Cc2ccc(CCC(=O)O)cc2)ccn1 ?
Completion: 102

Prompt: What about O=C(O)CCc1ccc(C#Cc2ccnc(Cl)c2Cc2ccccc2)cc1 ?
Completion: 101

Prompt: What about Cc1ccsc1C#Cc1ccc(CCC(=O)O)cc1 ?
Completion: 100

Prompt: What about Cc1cccc(C#Cc2ccc(CCC(=O)O)cc2)n1 ?
Completion: 108

Prompt: What about COc1nccc(C#Cc2ccc(CCC(=O)O)cc2)n1 ?
Completion: 109

Prompt: What about Cc1cc(C#Cc2ccc(CCC(=O)O)cc2)nc(Cl)n1 ?
Completion: 110

Prompt: What about Cc1ccccc1C#Cc1ccc(CCC(=O)O)cc1 ?
Completion: 102

Prompt: What about COc1cc(C#Cc2ccc(CCC(=O)O)cc2)ccn1 ?
Completion: 98

Prompt: What about Cc1c(C#Cc2ccc(CCC(=O)O)cc2)ccnc1F ?
Completion: 101

Prompt: What about O=C(O)CCc1ccc(C#Cc2cccnc2)cc1 ?
Completion: 96

Prompt: What about Cc1ccccc1-c1cc(C#Cc2ccc(CCC(=O)O)cc2)ccn1 ?
Completion: 92
